Values from PubChem BioAssay AID1286

target: Serine/threonine-protein kinase D1 (Homo sapiens) (UniProt Q15139); assay: protein kinase D1 activity blockers – biochemical, fluorescence polarization, 140K library hits, repeat, confirmation (AID 1286); settings: PKD1 kinase, at 10 µM, active compounds read high
Sequence (Q15139 whole entry, looked up): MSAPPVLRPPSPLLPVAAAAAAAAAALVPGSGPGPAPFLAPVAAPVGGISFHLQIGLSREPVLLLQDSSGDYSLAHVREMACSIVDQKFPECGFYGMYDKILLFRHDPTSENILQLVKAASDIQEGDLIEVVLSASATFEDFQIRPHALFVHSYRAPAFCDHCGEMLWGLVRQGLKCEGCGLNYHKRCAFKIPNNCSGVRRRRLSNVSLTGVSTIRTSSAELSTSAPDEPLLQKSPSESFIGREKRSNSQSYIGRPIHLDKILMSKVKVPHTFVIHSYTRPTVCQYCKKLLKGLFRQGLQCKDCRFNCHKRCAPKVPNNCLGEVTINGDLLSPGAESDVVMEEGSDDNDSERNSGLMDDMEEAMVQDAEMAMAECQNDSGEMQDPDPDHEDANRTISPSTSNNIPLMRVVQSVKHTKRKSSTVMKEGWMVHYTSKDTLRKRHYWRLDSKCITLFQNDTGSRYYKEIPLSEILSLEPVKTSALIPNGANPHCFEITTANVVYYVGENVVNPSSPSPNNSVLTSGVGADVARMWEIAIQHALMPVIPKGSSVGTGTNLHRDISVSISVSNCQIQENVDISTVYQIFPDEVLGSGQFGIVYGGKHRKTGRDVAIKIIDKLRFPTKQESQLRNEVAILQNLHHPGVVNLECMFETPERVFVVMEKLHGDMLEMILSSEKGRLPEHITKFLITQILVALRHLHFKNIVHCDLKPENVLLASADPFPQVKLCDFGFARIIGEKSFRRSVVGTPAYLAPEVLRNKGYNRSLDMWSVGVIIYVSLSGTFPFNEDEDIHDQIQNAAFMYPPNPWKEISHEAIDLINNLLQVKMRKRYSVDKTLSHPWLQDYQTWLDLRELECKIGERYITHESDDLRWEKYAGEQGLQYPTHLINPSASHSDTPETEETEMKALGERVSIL
Records with an inconclusive call do not appear.
Please provide measured inhibition for the entries that follow.
Numeric answer only, unit % assumed.

q: Dear colleague, I am looking for the recorded inhibition of the following compound: CCOC(=O)c1[nH]c2cc(OC)c(OC)cc2c1NC(=O)CN1CCN(C)CC1
a: 3.12

q: Dear colleague, I am looking for the recorded inhibition of the following compound: COc1ccc(Nc2cc(C)nc(-n3nc(C)cc3C)n2)cc1
a: 3.67

q: Dear colleague, I am looking for the recorded inhibition of the following compound: CCC(=O)Nc1c2c(nn1-c1ccccc1C)CSC2
a: 58.1

q: Dear colleague, I am looking for the recorded inhibition of the following compound: O=C(Nc1cccc([N+](=O)[O-])c1)C12CC3CC(C1)CC(n1cnc([N+](=O)[O-])n1)(C3)C2
a: -4.73

q: Dear colleague, I am looking for the recorded inhibition of the following compound: Cc1c(N/N=C(\C#N)C(=O)c2ccccc2)c(=O)n(-c2ccccc2)n1C
a: 12.8

q: Dear colleague, I am looking for the recorded inhibition of the following compound: Cc1cc(Nc2cccc(F)c2)nc(NCc2ccccc2)n1
a: 1.99

q: Dear colleague, I am looking for the recorded inhibition of the following compound: Cc1c(C(=O)N/N=C/c2ccc(O)c(Br)c2)sc(N)c1C#N
a: 44.5

q: Dear colleague, I am looking for the recorded inhibition of the following compound: Nc1nc2ccccc2n1/N=C/c1cccnc1
a: 36.4

q: Dear colleague, I am looking for the recorded inhibition of the following compound: CCOC(=O)N1CCN(c2cc(NCCC(=O)O)c3c4c(onc24)-c2ccccc2C3=O)CC1
a: 3.06

q: Dear colleague, I am looking for the recorded inhibition of the following compound: c1ccc(-c2n[nH]c3ccccc23)cc1
a: 11.3

q: Dear colleague, I am looking for the recorded inhibition of the following compound: Cn1c(OCc2cccnc2)nc2c1c(=O)n(Cc1ccc(Br)cc1)c(=O)n2C
a: -0.468

q: Dear colleague, I am looking for the recorded inhibition of the following compound: COc1cc2c(cc1OC)-c1c(OC)c(OC)c(OC)c3ccnc(c13)C2=O
a: 10.4

q: Dear colleague, I am looking for the recorded inhibition of the following compound: CN(C)CCOc1ccc2c(c1)Sc1ccccc1CC2=O
a: 8.37

q: Dear colleague, I am looking for the recorded inhibition of the following compound: COc1ccc(-c2cnnc(N/N=C/c3ccc(O)c(O)c3)n2)cc1
a: 3.96

q: Dear colleague, I am looking for the recorded inhibition of the following compound: O=C(Nc1ccsc1C(=O)NC1CC1)c1ccccc1
a: 9.43

q: Dear colleague, I am looking for the recorded inhibition of the following compound: COc1ccccc1/C=C1\SC(=S)N(CCC(=O)NC2=NCCS2)C1=O
a: -0.701

q: Dear colleague, I am looking for the recorded inhibition of the following compound: COCC(C)n1c(C)cc(C(=O)COC(=O)c2nc3nc(C)cc(C)n3n2)c1C (configuration not stated)
a: -2.8

q: Dear colleague, I am looking for the recorded inhibition of the following compound: Cc1ccc(C(=O)Cn2c(NCCO)nc3ccccc32)cc1
a: -5.32

q: Dear colleague, I am looking for the recorded inhibition of the following compound: Cc1nn(C)c(C)c1N1C(=O)c2cccc3c(N)ccc(c23)C1=O
a: 46.3

q: Dear colleague, I am looking for the recorded inhibition of the following compound: CC(=O)Oc1cc(OC(C)=O)c2c(C)cc(=O)oc2c1
a: 68.1

q: Dear colleague, I am looking for the recorded inhibition of the following compound: COc1ccc(S(=O)(=O)N2CCC(n3cnc4cc(C(F)(F)F)ccc43)CC2)cc1
a: 20.8

q: Dear colleague, I am looking for the recorded inhibition of the following compound: CN(C)c1ccc(/C=C2\SC(=S)N(Nc3ncc(C(F)(F)F)cc3Cl)C2=O)cc1
a: 4.05
